Source: the supplement of paper PMC9170038

Test system: MS2 coat protein
Assay: apparent KD of MS2 coat protein; designed switch direction (-1 OFF switch, 1 ON switch): -1; higher = weaker reporter binding
Conditions: input ligand: none
Please mark 1 (yes) if the recorded apparent KD of MS2 coat protein is equal to or greater than 40 nM, and 0 (no) if it falls below.

item_sequence="CACCUGAACUCAGGAUAUCAUACAUGAGGAUCACCCAUGUAAUAAAUGAGAAUUUCGAAUGUAAUUGAGAAGGGAGAAUAAGGC [Ostricism 98 - Jieux - Exclusion NG 2] (Eterna round: R96, puzzle: Exclusion NG 2)" tested_on="MS2 coat protein" category="0 (no)"
item_sequence="AAAACCAGAGGAUAUGCGCAUAGAUAAGACUUUGUUUCUUAACAUGAGGAUCACCCAUGUAGAAGGCUGUAAAA [Ex2 #71] (Eterna round: R97, puzzle: Exclusion 2)" tested_on="MS2 coat protein" category="0 (no)"
item_sequence="GCACGGAGUGCAGGAUAUCUGUGCGAUUAGCUCAGAGAAGGGCACAUGAGGAUCACCCAUGUGUAUAAACACAAUAAUCCGUGC [Eli exng1 - 068] (Eterna round: R96, puzzle: Exclusion NG 1)" tested_on="MS2 coat protein" category="0 (no)"
item_sequence="CCGUGCAGGCUGCGGUCCUACAUGAGGAUCACCCAUGUGGUCCGGUGGCGUGGGUCGCCGGACUUGGCUCGUCUUGU [salish99_S_TOV1_R5_016] (Eterna round: R97, puzzle: Sensor, turn-off variant 1)" tested_on="MS2 coat protein" category="1 (yes)"
item_sequence="AUCAUAACCUAGGAUAUGUAGCAGCCCGCAGCGACAGAAGGAGGUACAUGAGGAUCACCCAUGUCCACUCCCGU [EX6 C.11] (Eterna round: R97, puzzle: Exclusion 6)" tested_on="MS2 coat protein" category="0 (no)"

----------
Test system: MS2 coat protein
Experiment: apparent KD of MS2 coat protein; designed switch direction (-1 OFF switch, 1 ON switch): 1; higher = weaker reporter binding
Conditions: input ligand: none
Value type: apparent KD of MS2 coat protein (nM)

item_sequence="GUAAUCGUUAUAGGAUAUCAUGAGGAUUACCCAUGAGAAGGGUGAUUCCGAUCCAUAUUCAGAAAAUGAAUGUGGAUAGAUUGC [Omei NG1 A v1] (Eterna round: R96, puzzle: Same State NG 1)" observed_measurement=260
item_sequence="AAGAUACAUGAGGAUCACCCAUGUCGAGAGAGACGAGGAUAUCUGAAUCGAUUAGAUUACGGAGAAGGCGUGAAAA [LROPPY Same State 1 - v07_deltaG=1.9] (Eterna round: R96, puzzle: Same State 1)" observed_measurement=29.7
item_sequence="AUUAUUUAUGCAGGAUAUGAUUAACAUGAGGAUCACCCAUGUGGUGUUGUGAGUAAGGAGAGUGAUCAGAAGGGCAUCUUUUUU [JMF's solution 44] (Eterna round: R96, puzzle: Same State NG 2)" observed_measurement=414
item_sequence="GUCAGCGAUUGAGGAUAUCACGUCGAAUAGACGUGAGAAGGCGAUCAUAACAUGAGGAUCACCCAUGUAUUACAUGAAGCUGAC [SSNG1/5-A1] (Eterna round: R96, puzzle: Same State NG 1)" observed_measurement=29.1
item_sequence="AGCUAUUAAUCAGGAUAUGGUCACAUGAGGAUCACCCAUGUAUAGAUGAUUGAAUGUGGUCUAAACUAGAAGGGAUUGCUAACA [SameState NG2 #57] (Eterna round: R96, puzzle: Same State NG 2)" observed_measurement=745
